- Tested on: RARg homodimer (NR concentration 270 nM)
- assay explanation: PBM binding z-score (relative to random genomic background probes); higher = stronger binding; sequences stand for … in GC…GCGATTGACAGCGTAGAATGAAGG
Assign class by PBM binding z-score: not lower than 4 means satisfied; lower than 4 means not satisfied.

INSERT INTO measurements (sequence_input, experimental_target, assigned_label) VALUES
  ('GCGATTAGTTGAAAGGGCAACCGAATGATTCTCG', 'RARg homodimer (NR concentration 270 nM)', 'not satisfied'),
  ('TAGCCTAGGTCATTCGGCCAGTATAGTACGCATC', 'RARg homodimer (NR concentration 270 nM)', 'satisfied'),
  ('TGCCAAAGTTCAAAGGTAACGTAAGTATCCACAC', 'RARg homodimer (NR concentration 270 nM)', 'satisfied'),
  ('ATCGAAAGGTCGAAGGTGAGGATACCCACCCGAA', 'RARg homodimer (NR concentration 270 nM)', 'not satisfied'),
  ('TCTAGTTGGTCAAAGGTAACACACTCGAAATGCG', 'RARg homodimer (NR concentration 270 nM)', 'not satisfied'),
  ('GGAACCAGGGCATTCGAGTTGATAGCATGGCGAT', 'RARg homodimer (NR concentration 270 nM)', 'not satisfied'),
  ('CGTCCAAGGTCAGCAGGACAGTGAAAGCGACGTG', 'RARg homodimer (NR concentration 270 nM)', 'satisfied'),
  ('TCAGACAGGTGAGGGTAACTCAGGTACGCAGTCG', 'RARg homodimer (NR concentration 270 nM)', 'not satisfied'),
  ('CCTGCTAGGTCAATGGTCAGCTATAGCAGCTCGC', 'RARg homodimer (NR concentration 270 nM)', 'satisfied'),
  ('TCTTGTAGATCAGCAGGTTAACAAAGCTGGCCAA', 'RARg homodimer (NR concentration 270 nM)', 'not satisfied'),
  ('GGAACGGGGGCAAAGTTGATAGCATCTGTCGACG', 'RARg homodimer (NR concentration 270 nM)', 'not satisfied');
